Origin of measurements: patent US20240182536A1

I'd appreciate it if you could supply Ratio (-BP/+BP), DF-5000006 values for the items below.
Target: T1, IL-18 binding protein (IL-18BP) (UniProt O95998 31-194)
T1 sequence (looked up): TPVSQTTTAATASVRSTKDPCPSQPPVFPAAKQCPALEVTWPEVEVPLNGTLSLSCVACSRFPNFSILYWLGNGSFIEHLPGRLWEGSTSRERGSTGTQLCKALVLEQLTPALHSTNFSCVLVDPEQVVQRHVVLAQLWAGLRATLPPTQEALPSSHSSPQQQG
Experiment: cell-based or functional assay
Number, no unit, nothing else.

Request: For the binder shown here, IL-18 variant G3T, E6Q, K53G, D54G, S55H, T63A, S65T, N91R, R104Q (ligand) YFTKLQSKLSVIRNLNDQVLFIDQGNRPLFEDMTDSDMRDNAPRTIFIISMYGGHQPRGMAVAITVKSEKISTLSSENKIISFKEMNPPDRIKDTKSDIIFFQQSVPGHDNKMQFESSSYEGYFLASEKERDLFKLILKKEDELGDRSIMFTVQNED , give the reported Ratio (-BP/+BP), DF-5000006.
Response: 1.03

Request: Recorded Ratio (-BP/+BP), DF-5000006 for IL-18 variant G3Y, E6N, N91Y, R104S (ligand) YFYKLNSKLSVIRNLNDQVLFIDQGNRPLFEDMTDSDMRDNAPRTIFIISMYKDSQPRGMAVTISVKSEKISTLSSENKIISFKEMNPPDYIKDTKSDIIFFQSSVPGHDNKMQFESSSYEGYFLASEKERDLFKLILKKEDELGDRSIMFTVQNED , please?
Response: 1.5

Request: Look up Ratio (-BP/+BP), DF-5000006: IL-18 variant E6T, D54P, S55K, R104S (ligand) YFGKLTSKLSVIRNLNDQVLFIDQGNRPLFEDMTDSDMRDNAPRTIFIISMYKPKQPRGMAVTISVKSEKISTLSSENKIISFKEMNPPDNIKDTKSDIIFFQSSVPGHDNKMQFESSSYEGYFLASEKERDLFKLILKKEDELGDRSIMFTVQNED
Response: 0.99
